Entry source: ChEMBL document CHEMBL4387746

- TESTED_SYSTEM: Neuronal acetylcholine receptor subunit alpha-7 (Homo sapiens)
- Sequence (P36544 whole entry): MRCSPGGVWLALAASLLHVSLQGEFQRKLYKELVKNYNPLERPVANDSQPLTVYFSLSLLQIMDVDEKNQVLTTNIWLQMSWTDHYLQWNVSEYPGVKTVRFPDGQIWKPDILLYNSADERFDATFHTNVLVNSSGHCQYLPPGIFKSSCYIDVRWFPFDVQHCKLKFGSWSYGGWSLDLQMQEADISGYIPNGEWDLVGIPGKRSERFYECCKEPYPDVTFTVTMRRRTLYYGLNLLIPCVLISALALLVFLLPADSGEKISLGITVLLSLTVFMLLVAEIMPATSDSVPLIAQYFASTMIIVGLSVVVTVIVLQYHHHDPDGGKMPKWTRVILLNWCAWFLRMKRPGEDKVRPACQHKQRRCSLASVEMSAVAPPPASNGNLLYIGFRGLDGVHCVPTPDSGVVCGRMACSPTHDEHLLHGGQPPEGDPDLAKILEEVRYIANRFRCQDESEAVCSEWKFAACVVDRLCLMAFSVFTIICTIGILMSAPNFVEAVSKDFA
- ASSAY_NOTES: Positive allosteric modulation activity at human alpha7 nAChR expressed in Xenopus laevis oocytes assessed as increase in acetylcholine-induced channel current at -90 mV holding potential preincubated for 2 mins followed by co-application with acetylcholine for 10 secs by two-electrode voltage clamp method
Quick reference for EC50 among some compounds
Write it as a number; the unit µM goes unstated.

A selection of reference data follows.
STRUCTURE_AS_SMILES	EC50, µM
Cc1ccc(-c2cnc(N)c(C(=O)Nc3c(C)cccc3Cl)c2)cc1	3.19
Cc1ccc(-c2cncc(C(=O)Nc3c(C)cccc3Cl)c2)cc1	1.97
COc1ccc(-c2cnc(N)c(C(=O)Nc3c(C)cccc3Cl)c2)cc1	8.5
Cc1cccc(Cl)c1NC(=O)c1cc(-c2ccc(F)c(Cl)c2)cnc1N	5.49
CCc1ccc(-c2cnc(N)c(C(=O)Nc3c(C)cccc3Cl)c2)cc1	1.35

Incoming: Look at this compound and give its reported EC50. COc1ccccc1-c1cnc(N)c(C(=O)Nc2c(C)cccc2Cl)c1
Outgoing: 4.32

Incoming: What value of EC50 has been recorded for this entry: CSc1ccc(-c2cnc(N)c(C(=O)Nc3c(C)cccc3Cl)c2)cc1
Outgoing: 4.96

Incoming: Returns the measured EC50 for the input compound. Input: Cc1ccc(-c2cnc(N)c(C(=O)Nc3c(C)cccc3Cl)c2)cc1F
Outgoing: 3.31

Incoming: Looking for the measured EC50 of Cc1cc(-c2cnc(N)c(C(=O)Nc3c(C)cccc3Cl)c2)ccc1F , can you help?
Outgoing: 3.34

Incoming: Which EC50 reading was recorded for the compound Cc1cccc(Cl)c1NC(=O)c1cc(-c2ccc(F)cc2)cnc1N ?
Outgoing: 4.57
